Overview of recorded GI50 for various compounds
assay: Growth inhibition of human RPMI8226 cells after 48 hrs by sulforhodamine B assay; assay type: functional; settings: RPMI-8226, 48 h
readout-type: GI50 (µM)

smiles_string=COc1ccc(-c2nn[nH]c2-c2cc(OC)c(OC)c(OC)c2)cc1 readout_type=GI50 sign=< test_value=0.01
smiles_string=COc1ccc(-c2n[nH]nc2-c2cc(OC)cc(OC)c2)cc1 readout_type=GI50 sign== test_value=0.037
smiles_string=COc1cc(-c2n[nH]nc2-c2ccc3c(c2)OCO3)cc(OC)c1OC readout_type=GI50 sign== test_value=0.33
smiles_string=COc1cc(-c2n[nH]nc2-c2ccc3c(c2)OCCO3)cc(OC)c1OC readout_type=GI50 sign== test_value=0.033
smiles_string=Clc1ccc(-c2n[nH]nc2-c2ccccn2)c(Cl)c1 readout_type=GI50 sign== test_value=10.7
smiles_string=COc1cc(-c2n[nH]nc2-c2ccc3ccccc3n2)cc(OC)c1OC readout_type=GI50 sign== test_value=0.037

* * *

system: SR; experiment: Growth inhibition of human SR cells after 48 hrs by sulforhodamine B assay; assay type: functional
Overview of recorded GI50 for various molecules
readout-type: GI50

smiles_string=COc1cc(-c2n[nH]nc2-c2ccc3c(c2)OCCO3)cc(OC)c1OC test_value="< 10 nM"
smiles_string=COc1ccc(-c2n[nH]nc2-c2cc(OC)cc(OC)c2)cc1 test_value="< 10 nM"
smiles_string=COc1ccc(-c2nn[nH]c2-c2cc(OC)c(OC)c(OC)c2)cc1 test_value="< 10 nM"

* * *

test: Growth inhibition of human HCT116 cells after 48 hrs by sulforhodamine B assay; type: functional; conditions: HCT-116, 48 h
Overview of recorded GI50 for various molecules
readout-type: GI50

smiles_string=COc1cc(-c2n[nH]nc2-c2ccc3c(c2)OCCO3)cc(OC)c1OC readout_type=GI50 test_value="< 10 nM"
smiles_string=COc1ccc(-c2nn[nH]c2-c2cc(OC)c(OC)c(OC)c2)cc1 readout_type=GI50 test_value="< 10 nM"
smiles_string=COc1ccc(-c2n[nH]nc2-c2cc(OC)cc(OC)c2)cc1 readout_type=GI50 test_value="< 10 nM"

The measured values listed here are drawn from ChEMBL document CHEMBL3739417.
